These measurements were taken from patent US8193191B2.

# system.name: rat GPR14 (U-II receptor) (Rattus norvegicus, UniProt P49684)
# Construct: expressed in transfected cells
# Sequence (P49684 whole entry): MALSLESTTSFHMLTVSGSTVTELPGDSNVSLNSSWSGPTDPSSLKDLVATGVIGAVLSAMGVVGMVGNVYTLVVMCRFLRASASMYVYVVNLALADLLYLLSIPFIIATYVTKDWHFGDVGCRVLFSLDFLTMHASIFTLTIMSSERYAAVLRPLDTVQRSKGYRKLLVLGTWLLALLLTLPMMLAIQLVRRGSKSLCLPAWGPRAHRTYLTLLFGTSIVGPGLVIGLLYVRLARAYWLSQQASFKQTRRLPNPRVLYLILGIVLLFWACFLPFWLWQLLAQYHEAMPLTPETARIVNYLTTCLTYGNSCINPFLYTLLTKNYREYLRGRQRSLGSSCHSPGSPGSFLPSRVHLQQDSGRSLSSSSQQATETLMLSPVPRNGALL
# method.summary: Rat UII Calcium Mobilization FLIPR Assay
# Type: cell-based
# reported.conditions: Inhibition of Acetyl-cyclic[Cys-Phe-Trp-Lys-(2-Nal)-Cys]-NH2 induced Ca2+ mobilization (FLIPR) in CHO cells transfected with rat UII receptor; read-out: IC50
IC50 class ranges: category 1 = under 1 µM, category 2 = from 1 µM up to 10 µM, category 3 = 10 µM and over

In: Could you place COc1ccc(CN2C(=O)c3cccc(C4CCN(Cc5ccccc5)CC4)c3C2=O)cc1OC [Cpd 76] in its proper category? Many thanks.
Out: category 1

In: Same for COc1ccc([C@H](CC(=O)O)N2C(=O)c3cccc(N4CCN([C@H](C)c5ccccc5)CC4)c3C2=O)cc1OC [Cpd 30]
Out: category 2

In: Try this compound next: COc1cc(CN2C(=O)c3cccc(N4CC5CCC(C4)N5Cc4ccccc4)c3C2=O)cc(OC)c1OC [Cpd 26]
Out: category 2

In: Continue with COc1ccc(C(c2ccccc2)N2C(=O)c3cccc(N4CCN([C@H](C)c5ccccc5)CC4)c3C2=O)cc1OC (stereo partly drawn) [Cpd 49]
Out: category 3

In: Also COc1ccc(C(CN(C)C)N2C(=O)c3cccc(N4CCN([C@H](C)c5ccccc5)CC4)c3C2=O)cc1OC (stereo partly drawn) [Cpd 63] ?
Out: category 1

In: COc1ccc(C(CCCCNC(=O)OC(C)(C)C)N2C(=O)c3cccc(N4CCN([C@H](C)c5ccccc5)CC4)c3C2=O)cc1OC (stereo partly drawn) [Cpd 69] ?
Out: category 3

In: Thanks! And COc1ccc(C(CCCN)N2C(=O)c3cccc(N4CCN([C@H](C)c5ccccc5)CC4)c3C2=O)cc1OC (stereo partly drawn) [Cpd 66] ?
Out: category 1

In: // next record COc1ccc(CN2C(=O)c3cccc(N[C@@H]4CCCC[C@H]4NCc4ccccc4)c3C2=O)cc1OC [Cpd 37]
Out: category 2

In: COc1ccc(C(CN)N2C(=O)c3cccc(N4CCN([C@H](C)c5ccccc5)CC4)c3C2=O)cc1OC (stereo partly drawn) [Cpd 64] ?
Out: category 1

In: // next record COc1ccc(CN2C(=O)c3cccc(N4CCN(Cc5cc(F)cc(F)c5)CC4)c3C2=O)cc1OC [Cpd 46]
Out: category 3

In: Try this compound next: COc1ccc(CN2C(=O)c3cccc(OCCN(C)Cc4ccccc4)c3C2=O)cc1OC [Cpd 53]
Out: category 3

In: # repeat for COc1ccc(CN2C(=O)c3cccc(OCCNCc4ccccc4)c3C2=O)cc1OC [Cpd 54]
Out: category 3

In: Next compound up: COc1ccc(CN2C(=O)c3cccc(N4CCN(Cc5ccc(C)cc5)CC4)c3C2=O)cc1OC [Cpd 40]
Out: category 2

In: Field entry: COc1ccc(C(C)N2C(=O)c3cccc(N4CCN([C@H](C)c5ccccc5)CC4)c3C2=O)cc1OC (stereo partly drawn) [Cpd 2]
Out: category 1

In: Now this one: COc1ccc(CN2C(=O)c3cccc(NCCNCc4ccccc4)c3C2=O)cc1OC [Cpd 48]
Out: category 3

In: Item: COc1ccc(CN2C(=O)c3cccc(N4CCN(Cc5ccccc5C#N)CC4)c3C2=O)cc1OC [Cpd 38]
Out: category 2

In: Try this compound next: COc1ccc([C@@H](C)N2C(=O)c3cccc(N4CCN([C@H](C)c5ccccc5)CC4)c3C2=O)cc1OC [Cpd 4]
Out: category 1

In: Can you check COc1ccc(C(CCCNS(=O)(=O)c2ccc(Cl)s2)N2C(=O)c3cccc(N4CCN([C@H](C)c5ccccc5)CC4)c3C2=O)cc1OC (stereo partly drawn) [Cpd 71] next?
Out: category 2

In: Next compound up: COc1ccc(C(CCCNC(=O)OC(C)(C)C)N2C(=O)c3cccc(N4CCN([C@H](C)c5ccccc5)CC4)c3C2=O)cc1OC (stereo partly drawn) [Cpd 65]
Out: category 1
